Values from patent US20220324835A1

test system: T-cell; experiment: IL-2 secretion from T-cells stimulated with anti-CD3 antibody alone (Biological Example 2); format: cell-based, human; settings: T-cell; fold change over baseline; 1 μM Cbl-b inhibitor; primary human total T-cells; read-out: IL-2 secretion Anti-CD3 stimulation
Structures can show the parent of a compound that is named as a salt.
Reported fold induction at 1 µM values follow for various compounds

Worked cases, fold induction at 1 µM given:
INSERT INTO measurements (compound, data_value) VALUES
  ('C[C@H](Sc1nncn1C)c1cccc(NC(=O)c2cccc(S(C)(=O)=O)n2)c1 [Compound 80]', '< 0.05'),
  ('C[C@H](Sc1nncn1C)c1cccc(NC(=O)c2cc3cc(OCc4ccn[nH]4)ccc3cn2)c1 [Compound 307]', '0.051 to 0.1'),
  ('C[C@H](Cc1nncn1C)c1cccc(NC(=O)c2cccc(C(F)(F)CO)n2)c1 [Compound 188]', '< 0.05'),
  ('C[C@H](Cc1nncn1C)c1cccc(NC(=O)c2cc(C(=O)N3CC[C@](C)(O)C3)ccn2)c1 [Compound 222]', '< 0.05'),
  ('C[C@H](Sc1nncn1C)c1cccc(NC(=O)c2cccc(C3CC3)n2)c1 [Compound 72]', '0.051 to 0.1');

Challenge: Reported fold induction at 1 µM, compound Cc1ccc(C(=O)Nc2cccc([C@H](C)Cc3nnc[nH]3)c2)nc1C1CC1 [Compound 212] : ____
Response given: < 0.05

Challenge: Ok, now Cc1cc(C(=O)Nc2cccc([C@H]3C[C@H]3c3nncn3C)c2)nc(C2CC2)n1 [Compound 333]
Response given: 0.101 to 0.15

Challenge: C[C@H](Sc1nncn1C)c1cccc(NC(=O)c2cc3cc(OCC(=O)NCCN)ccc3cn2)c1 [Compound 311, hydrochloride] ?
Response given: < 0.05

Challenge: Subsequent entry: C[C@H](Cc1nncn1C)c1cccc(NC(=O)c2cc(S(N)(=O)=O)cc(C(F)(F)F)n2)c1 [Compound 200]
Response given: < 0.05

Challenge: Next: C[C@H](Cc1nncn1C1CC1)c1cccc(N2Cc3c(cccc3C(F)(F)F)C2=O)c1 [Compound 265]
Response given: < 0.05

Challenge: Check CCNc1cc([C@H](C)Cc2nncn2C)cc(N2Cc3c(cccc3C(F)(F)F)C2=O)n1 [Compound 360] too.
Response given: > 0.201

Challenge: How about this compound: Cc1cc(C(=O)Nc2cccc([C@H](C)Cc3nncn3C)c2)nc(C2CC2)n1 [Compound 195]
Response given: > 0.201

Challenge: Another compound to look at: C[C@H](Sc1nncn1C)c1cccc(NC(=O)c2cccc(C(C)(F)F)n2)c1 [Compound 81]
Response given: < 0.05

Challenge: Same question for C[C@H](Cc1nncn1C)c1ccnc(N2Cc3c(cccc3C(F)(F)F)C2=O)c1 [Compound 304b] please.
Response given: < 0.05

Challenge: Do the same for Cc1cc(C(=O)Nc2cccc(C3(Cc4nncn4C)COC3)c2)nc(C(F)(F)F)n1 [Compound 338] please
Response given: 0.101 to 0.15

Challenge: Moving on to Cc1cc(C(=O)Nc2cccc([C@H](C)Cc3nncn3C)c2)nc(C(F)(F)F)n1 [Compound 194]
Response given: > 0.201

###

system: primary human total T-cells; assay: T-cell activation assessed by cell proliferation (Cell Trace Violet); format: cell-based; conditions: CD3/CD28 stimulation, CD8 T-cells, 10 μM, read-out: % CP (cell proliferation) (CD8)
value kind: fold induction at 10 µM

Worked examples follow.
INSERT INTO assay_data (compound, target_of_assay, value_kind, data_value) VALUES
  ('Cc1cc(C(=O)Nc2cccc([C@H](C)Cc3nncn3C)c2)nc(C2CC2)n1 [Compound 195]', 'primary human total T-cells', 'fold induction at 10 µM', '> 4'),
  ('Cn1cnnc1[C@@H]1C[C@@H]1c1cccc(N2Cc3c(ccnc3C(F)(F)F)C2=O)c1 [Compound 369]', 'primary human total T-cells', 'fold induction at 10 µM', '2.01 to 3'),
  ('Cc1n[nH]c(C)c1-c1cc2c(c(C(F)(F)F)c1)CN(c1cccc(C3(Cc4nncn4C)COC3)c1)C2=O [Compound 385]', 'primary human total T-cells', 'fold induction at 10 µM', '3.01 to 4');

Challenge: Endpoint output: fold induction at 10 µM of C[C@H](Cc1nncn1C)c1cccc(N2Cc3c(cc(CN4CC(C)(O)C4)cc3C(F)(F)F)C2=O)c1 [Compound 397] . Value?
Response given: > 4

###

molecular target: Cbl-b (Homo sapiens); experiment: Cbl-b inhibition assay (Cbl-b activity assay, FRET, Biological Example 1; 100 mM NaCl, 60 nM Src kinase); type: biochemical; conditions: upper bound stated in text lists; read-out: IC50 values in the Cbl-b inhibition assay of Biological Example 1
pIC50: −log10 of the molar value.
Each record here notes measured pIC50.

Reference set, count: 3
INSERT INTO assay_data (molecule, data_value) VALUES
  ('C[C@@H]1CN(Cc2cc3c(c(C(F)(F)F)c2)CN(c2cccc(-c4c(-c5nncn5C)cnn4C)c2)C3=O)C[C@H](C)O1 [Compound 525]', '≥ 7.00'),
  ('C[C@H](Cc1n[nH]cc1CO)c1cccc(N2Cc3c(cccc3C(F)(F)F)C2=O)c1 [Compound 271b]', '≥ 5.00'),
  ('Cn1cnnc1CC1(c2cccc(NC(=O)c3cc(C4CC4)nc(C4CC4)n3)c2)COC1 [Compound 347]', '≥ 7.00');

Challenge: Data request, read-out pIC50, for C[C@H](Sc1nncn1C)c1cccc(NC(=O)c2ccc(F)c(C3CC3)n2)c1 [Compound 91]
Response given: ≥ 7.00

Challenge: // next record Cc1cccc2nc(C(=O)Nc3cccc([C@H](C)Sc4nncn4C)c3)ccc12 [Compound 48]
Response given: ≥ 6.30

Challenge: Also need Cn1cnnc1CC1(c2cccc(N3Cc4c(cc(CN5CC[C@H](C#N)C5)cc4C(F)(F)F)C3=O)c2)COC1 [Compound 422] , thanks.
Response given: ≥ 7.00

Challenge: Here is the next molecule: Cn1cnnc1CC1(c2cccc(NC(=O)c3nc(C4CC4)cs3)c2)COC1 [Compound 493]
Response given: ≥ 6.00

###

tested on: T-cell; assay: CD25 cell surface staining on T-cells stimulated with anti-CD3 antibody alone (Biological Example 2); type: cell-based, human; details: T-cell; fold change over baseline; 8 μM Cbl-b inhibitor; primary human total T-cells; read-out: CD25 staining Anti-CD3 stimulation
Counter-ions that a name gives are not always drawn.
Reported fold induction at 8 µM values for the following molecules.

INSERT INTO results (molecule, target_of_assay, value_kind, data_value) VALUES
  ('C[C@H](Sc1nncn1C)c1cccc(NC(=O)c2cc3cc(OCC(=O)NCCN)ccc3cn2)c1 [Compound 311, hydrochloride]', 'T-cell', 'fold induction at 8 µM', '0.601 to 0.8'),
  ('C[C@H](Sc1nncn1C)c1cccc(N2Cc3c(cccc3C(F)(F)F)C2=O)c1 [Compound 166a]', 'T-cell', 'fold induction at 8 µM', '0.801 to 1'),
  ('C[C@H](Cc1nncn1C)c1cc(OCC(F)F)nc(N2Cc3c(cccc3C(F)(F)F)C2=O)c1 [Compound 356]', 'T-cell', 'fold induction at 8 µM', '> 1'),
  ('Cc1cc(C(=O)Nc2cccc([C@H](C)Cc3nncn3C)c2)nc(C2CC2)n1 [Compound 195]', 'T-cell', 'fold induction at 8 µM', '> 1'),
  ('C[C@H](Sc1nncn1C)c1ccnc(NC(=O)c2cc(Cl)cc(C(F)(F)F)n2)c1 [Compound 105]', 'T-cell', 'fold induction at 8 µM', '0.601 to 0.8');

Challenge: Using the record for C[C@H](Sc1nncn1C)c1cccc(NC(=O)c2cc(C3(O)COC3)cc(C(F)(F)F)n2)c1 [Compound 84] , report its fold induction at 8 µM.
Response given: 0.601 to 0.8

Challenge: Repeat for the following molecule: C[C@H](Cc1nncn1C)c1cccc(NC(=O)c2cc(C(=O)N3C[C@@H](O)[C@H](F)C3)ccn2)c1 [Compound 240]
Response given: 0.801 to 1

Challenge: Try the molecule C[C@H](Cc1nncn1C)c1cccc(NC(=O)c2ccc(CO)c(C3CC3)n2)c1 [Compound 203]
Response given: > 1

###

target: Cbl-b (Homo sapiens, UniProt Q13191); assay: Cbl-b activity assay (Cbl-b inhibition assay), TR-FRET of Cbl-b interaction with UbcH5B-Ub; format: biochemical; settings: assay buffer with 100 mM NaCl, 60 nM Src kinase; read-out: Cbl-b activity IC50
Sequence (Q13191 36-427): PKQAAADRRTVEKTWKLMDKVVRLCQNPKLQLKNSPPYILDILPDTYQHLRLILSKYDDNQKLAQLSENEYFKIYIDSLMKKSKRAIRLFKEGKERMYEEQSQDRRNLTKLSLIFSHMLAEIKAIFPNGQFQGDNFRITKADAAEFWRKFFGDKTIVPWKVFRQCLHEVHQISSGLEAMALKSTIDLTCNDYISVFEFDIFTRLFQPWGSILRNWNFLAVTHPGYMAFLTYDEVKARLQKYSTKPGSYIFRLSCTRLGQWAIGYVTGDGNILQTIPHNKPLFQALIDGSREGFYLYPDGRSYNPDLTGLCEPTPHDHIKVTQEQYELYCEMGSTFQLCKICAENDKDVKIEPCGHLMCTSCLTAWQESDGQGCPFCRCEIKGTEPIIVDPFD
pIC50: −log10 of the molar value.
Collected pIC50 values appear next to each entry.

Challenge: Give its pIC50 value. Item: Cc1cc(C(=O)Nc2cccc(C3=C(c4nncn4C)CCC3)c2)nc(C2CC2)n1
Response given: 6.52 to 7.00

Challenge: Please give the result for C[C@H](Cc1nncn1C)c1cccc(NC(=O)c2cc(O[C@@H]3CC[C@@H](O)C3)ccn2)c1 (relative stereo) too.
Response given: > 7.00

Challenge: Same question, CNc1cc(C(C)Sc2nncn2C)cc(N2Cc3c(cccc3C(F)(F)F)C2=O)n1 (stereo not shown) this time
Response given: 5.52 to 6.00

Challenge: CC(Cc1nncn1C)c1cc(C2CCC2)cc(N2Cc3c(cccc3C(F)(F)F)C2=O)c1 (stereo not shown) , same question.
Response given: 6.00 to 6.52

Challenge: Could you do the same for CC(CO)Nc1cc(C(C)Sc2nncn2C)cc(N2Cc3c(cccc3C(F)(F)F)C2=O)n1 (stereo not shown) , please?
Response given: 6.00 to 6.52

Challenge: How about Cc1n[nH]c(C)c1-c1cc2c(c(C(F)(F)F)c1)CN(c1cccc(C3(Cc4nncn4C)COC3)c1)C2=O ?
Response given: > 7.00

Challenge: And CC(Sc1nncn1C)c1cc(NC(=O)c2ccc3ccccc3n2)c2c(c1)C(C)(O)CC2 (stereo not shown) ?
Response given: 5.00 to 5.52
